TESTED_ON: Polyadenylate-binding protein 1 (Homo sapiens, UniProt P11940)
Sequence (P11940 whole entry): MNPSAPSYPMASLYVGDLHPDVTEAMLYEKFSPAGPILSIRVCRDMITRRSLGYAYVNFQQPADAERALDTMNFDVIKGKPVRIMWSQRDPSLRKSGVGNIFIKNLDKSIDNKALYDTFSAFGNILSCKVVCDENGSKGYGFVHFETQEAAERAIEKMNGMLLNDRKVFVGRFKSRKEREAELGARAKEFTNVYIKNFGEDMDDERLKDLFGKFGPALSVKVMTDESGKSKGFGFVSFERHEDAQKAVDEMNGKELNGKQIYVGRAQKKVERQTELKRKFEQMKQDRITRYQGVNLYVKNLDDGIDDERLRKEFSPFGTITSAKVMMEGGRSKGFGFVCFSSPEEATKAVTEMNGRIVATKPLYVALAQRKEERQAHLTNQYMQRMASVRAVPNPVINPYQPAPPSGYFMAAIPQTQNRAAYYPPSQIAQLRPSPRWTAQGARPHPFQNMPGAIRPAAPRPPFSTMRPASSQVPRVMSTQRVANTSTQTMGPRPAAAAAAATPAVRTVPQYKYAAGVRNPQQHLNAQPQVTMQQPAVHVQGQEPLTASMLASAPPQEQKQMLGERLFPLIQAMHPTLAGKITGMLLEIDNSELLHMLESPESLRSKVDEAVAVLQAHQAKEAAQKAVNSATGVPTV
MEASUREMENT_DESCRIPTION: PABP1 MLLE–PAM2 interaction inhibitors, dose response, miRNA deadenylation inhibitor project, biochemical, fluorescence polarization, Cy5-PAM2 peptide, secondary (AID 602260)
Format: functional
CONDITION_SUMMARY: read-out: IC50_Mean
Activity calls are given as the source filed them.
Reported IC50 values are given for each entry in this list.

# COMPOUND, TESTED_ON, IC50
rows = [
    ("N#Cc1cc2c(nc1S)CCCCCC2", "Polyadenylate-binding protein 1 (Homo sapiens, UniProt P11940)", "> 66 µM (inactive)"),
    ("CCOc1cc(C(=S)N2CCOCC2)ccc1OC", "Polyadenylate-binding protein 1 (Homo sapiens, UniProt P11940)", "> 66 µM (inactive)"),
    ("O=[N+]([O-])c1cc2ccccc2c(O)c1O", "Polyadenylate-binding protein 1 (Homo sapiens, UniProt P11940)", "> 66 µM (inactive)"),
    ("CC12CCCCN1CCCc1c2[nH]c2ccccc12 (centres undefined)", "Polyadenylate-binding protein 1 (Homo sapiens, UniProt P11940)", "> 66 µM (inactive)"),
    ("Cc1ccc2sc(C)[n+](CCC(C)S(=O)(=O)[O-])c2c1 (centres undefined)", "Polyadenylate-binding protein 1 (Homo sapiens, UniProt P11940)", "> 66 µM (inactive)"),
    ("Cc1ccccc1Nc1nc(N)nc(O)c1N=O", "Polyadenylate-binding protein 1 (Homo sapiens, UniProt P11940)", "> 66 µM (inactive)"),
    ("CCSc1sccc1C1C(C#N)=C(N)N(c2cccnc2)C2=C1C(=O)CCC2 (centres undefined)", "Polyadenylate-binding protein 1 (Homo sapiens, UniProt P11940)", "> 66 µM (inactive)"),
    ("O=C(CSc1ccccc1C(=O)O)NC1CCCCCC1", "Polyadenylate-binding protein 1 (Homo sapiens, UniProt P11940)", "> 66 µM (inactive)"),
    ("Cc1cccc(-c2nc(=S)c3c(o2)CCCC3)c1", "Polyadenylate-binding protein 1 (Homo sapiens, UniProt P11940)", "> 66 µM (inactive)"),
]

* * *

// values below are AC50; system is Cytochrome P450 2D6 (Homo sapiens);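 further: CYP2D6 member of a cytochrome P450 panel assay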
Sequence (P10635 whole entry): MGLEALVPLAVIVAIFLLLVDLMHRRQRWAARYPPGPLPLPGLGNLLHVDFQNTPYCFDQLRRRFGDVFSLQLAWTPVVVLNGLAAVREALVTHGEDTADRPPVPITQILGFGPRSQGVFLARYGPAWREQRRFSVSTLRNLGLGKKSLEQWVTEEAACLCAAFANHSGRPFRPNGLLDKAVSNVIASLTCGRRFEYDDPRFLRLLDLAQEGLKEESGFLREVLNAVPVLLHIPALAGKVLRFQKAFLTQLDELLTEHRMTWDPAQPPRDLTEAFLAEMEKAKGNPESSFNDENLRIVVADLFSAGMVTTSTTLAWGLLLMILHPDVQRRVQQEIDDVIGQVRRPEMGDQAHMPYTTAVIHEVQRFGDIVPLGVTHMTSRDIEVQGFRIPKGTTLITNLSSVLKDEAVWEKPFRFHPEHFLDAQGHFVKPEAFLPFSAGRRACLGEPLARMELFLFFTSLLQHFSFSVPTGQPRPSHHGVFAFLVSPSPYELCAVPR
ATTRIBUTE_MEASURED: AC50

# MOLECULE, RESULT
rows = [
    ("O=C(NCc1ccco1)Nc1cccs1", "14.1 µM (inconclusive)"),
    ("Cc1ccc(/C=N/NC(=O)C2CCN(Cc3ccc(F)cc3Cl)CC2)o1", "35.5 µM (inconclusive)"),
    ("CC(=O)NCCNc1nc(-c2ccc(N(C)C)cc2)nc2ccccc12", "20 µM (inconclusive)"),
    ("CC(C)[C@H](N)c1nnc(SCc2ccc(Cl)cc2)o1", "28.2 µM (inconclusive)"),
    ("CN(C)c1nc(-c2ccoc2)nc2ccccc12", "39.8 µM (inconclusive)"),
    ("Cc1ccc(S(=O)(=O)N2CCC(C(=O)NCc3cccnc3)CC2)cc1", "12.6 µM (inconclusive)"),
    ("CC(=O)Nc1ccc(OCC(O)Cn2cnc3ccccc32)cc1 (configuration not stated)", "0.00562 µM (inconclusive)"),
]

* * *

The reader will find reported IC50 values listed item by item below.
TESTED_ON: DNA dC->dU-editing enzyme APOBEC-3G (Homo sapiens, UniProt Q9HC16)
Sequence (Q9HC16 whole entry): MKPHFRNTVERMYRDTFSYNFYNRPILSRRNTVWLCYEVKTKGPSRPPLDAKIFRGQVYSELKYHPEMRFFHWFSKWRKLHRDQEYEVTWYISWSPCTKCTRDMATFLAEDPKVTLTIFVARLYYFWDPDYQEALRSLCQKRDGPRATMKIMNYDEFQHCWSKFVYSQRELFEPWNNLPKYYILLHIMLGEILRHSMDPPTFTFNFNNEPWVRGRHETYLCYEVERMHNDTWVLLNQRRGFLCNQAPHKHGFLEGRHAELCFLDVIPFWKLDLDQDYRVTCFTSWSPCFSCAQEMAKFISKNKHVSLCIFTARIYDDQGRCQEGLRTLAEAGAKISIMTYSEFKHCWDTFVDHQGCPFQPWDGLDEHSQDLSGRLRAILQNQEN
Format: functional
The source made the active and inactive calls.

# COMPOUND, IC50
measured = [
    ("CCCc1n(CC(O)COC2CCCCC2)c2ccccc2[n+]1CC (centres undefined)", "3.93 µM (active)"),
    ("O=C(Cc1cccs1)Nc1nnc(Cc2ccccc2)s1", "25.3 µM (active)"),
    ("COc1ccc([N+](=O)[O-])cc1CSc1ccccn1", "7.41 µM (active)"),
    ("C[N+](C)(C)CCCNC(=O)c1ccc(C=NO)nc1", "4.16 µM (active)"),
]
